Data provenance: patent US20220033501A1

Recorded OD450 values for a group of binders are listed next.
test.target: T1, murine TIM-3 protein with hFc tag (mTIM-3-hFc protein) (mouse; human, UniProt Q8VIM0 29-191)
T1 construct: Made in HEK293 cells; also called mouse TIM-3 extracellular domain protein; not shown: human IgG Fc fragment (hFc) of the pCpC vector
T1 chain: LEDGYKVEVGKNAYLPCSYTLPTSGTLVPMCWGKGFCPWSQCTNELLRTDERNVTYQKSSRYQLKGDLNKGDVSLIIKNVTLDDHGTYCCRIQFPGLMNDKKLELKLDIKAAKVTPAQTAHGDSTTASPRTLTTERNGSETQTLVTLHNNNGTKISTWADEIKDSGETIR
method: ELISA, coated mTIM-3-hFc; antibody 6.6667 nM

| binder | experimental.endpoint | observed |
| --- | --- | --- |
| 57F4E5 (TIM-3 antibody purified from hybridoma, chimeric antibody of Example 2) (antibody, V domains shown, From hybridoma of Harbour H2L2 transgenic mice: human variable regions, rat constant regions) VH: EVQLVESGGGLVQPGGSLRLSCAASGFTFSSYWMSWVRQAPGKGLEWVANIKQDGSEKYYVDSVKGRFTISRDSAKNSLYLQMNSLRAEDTAMYFCARDSNFFDYWGQGTLVTVSS VL: ETVMTQSPATLSVSPGERATLSCRASQSVSSNLAWYQRKPGQAPRLLIYFSSTRATGIPARFSGSGSGTEFTLTISSLQSEDFAVYYCQQYNNWPLTFGGGTKVEIK | OD450 | 0.69 |
| 39E5H1 (TIM-3 antibody purified from hybridoma, chimeric antibody of Example 2) (antibody, V domains shown, From hybridoma of Harbour H2L2 transgenic mice: human variable regions, rat constant regions) VH: EVQLVESGGGLVQPGGSLRLSCAASGFTFSSYWMSWVRQAPGKGLEWVANIKRGGSERYYVDSVKGRFTISGDNAKNSVYLQMNSLRAEDTAVYYCARGSNWFDPWGQGTLVTVSS VL: ETVMTQSPAILSVSPGERATLSCRASQSVYSNLAWYQQKLGQAPRLLIYDASTRATGIPARFSGSGSGTEFTLTISSLQSEDFAVYYCQQYNNWPITFGQGTRLEIK | OD450 | 0.68 |

Here's the next entry for you.
Lookup: If you can, please state the reported OD450 value of 134H3G6 (TIM-3 antibody purified from hybridoma, chimeric antibody of Example 2) (antibody, V domains shown, From hybridoma of Harbour H2L2 transgenic mice: human variable regions, rat constant regions) VH: EVQLVESGGGLVQPGGSLRLSCAASGFTFSNSWMTWVRQAPGKGLEWVANIKQAGTEKYYVDSVKGRFTISRDNAKNSLYLQMNSLRAEDTAVYYCNSGSNYFDYWGQGTLVTVSS VL: EIVMTQSPATLSVSPGERATLSCRARQNFYSNLAWYQQKPGQAPRLLIYGASTRATGIPARFSGSGSGTEFTLTISSLQSEDFAVYYCQQYNNWPLTFGGGTKVEIK .
Found: 0.67
